study-target: the molecule itself
assay-overview: SEC; gel filtration of affinity-purified proteins on Superdex 200 GL 10/300; apparent sizes against MW markers
outcome-measure: stoichiometry N
Please give the numeric answer without any surrounding text.

State, in one line, measured stoichiometry N of SppI-FLAG (natural protein, B. subtilis, UniProt O34424 1-164, looked up, SppI (formerly YteJ), membrane protein of Bacillus subtilis; not shown: FLAG, C-terminal, kept) MDATYEELERNDIKGPQEAELLTHAYAGFWVRFWAFLLDWLVIWGLNHLLVSPLFTVLDLPKTSGMFTFSAYSVTTLIVYLAYFALMTKYFRQTLGKMVFGLKVVSVKQDSKLTWSTVIFREVVGRYIDKIWILYIVVAFSPTKQGIHDYIADTTVVHEKLYRK
8

State, in one line, measured stoichiometry N of 6×His-SppA (enzyme, B. subtilis, UniProt O34525 1-335, looked up, SppA, membrane protease of Bacillus subtilis, amplified from BSB1 chromosomal DNA; Purified alone it gave at least three bands of 32 to 34 kDa (C-terminal domain partly self-cleaved); purified with SppI the major band was about 36 kDa and still held most of the C terminus; source: E. coli ER2566, purified from the cytoplasmic membrane fraction (1% DDM, Ni-NTA, gel filtration); not shown: 6×His, …) MNAKRWIALVIALGIFGVSIIVSISMSFFESVKGAQTDLTSLTDESQEKTLENGSPSSKIAVLEVSGTIQDNGDSSSLLGADGYNHRTFLKNLERAKDDKTVKGIVLKVNSPGGGVYESAEIHKKLEEIKKETKKPIYVSMGSMAASGGYYISTAADKIFATPETLTGSLGVIMESVNYSKLADKLGISFETIKSGAHKDIMSPSREMTKEEKNIMQSMVDNSYEGFVDVISKGRGMPKAEVKKIADGRVYDGRQAKKLNLVDELGFYDDTITAMKKDHKDLKNASVISYEESFGLGSLFSMGANKMFKSEIDFLNMREILSQSGSPRMMYLYAK
8

State, in one line, measured stoichiometry N of 6×His-SppI (natural protein, B. subtilis, UniProt O34424 1-164, looked up, SppI (formerly YteJ), membrane protein of Bacillus subtilis, amplified from BSB1 chromosomal DNA; source: E. coli ER2566, purified from the membrane fraction (1% DDM, Ni-NTA, gel filtration); not shown: 6×His, N-terminal, kept) MDATYEELERNDIKGPQEAELLTHAYAGFWVRFWAFLLDWLVIWGLNHLLVSPLFTVLDLPKTSGMFTFSAYSVTTLIVYLAYFALMTKYFRQTLGKMVFGLKVVSVKQDSKLTWSTVIFREVVGRYIDKIWILYIVVAFSPTKQGIHDYIADTTVVHEKLYRK
8

State, in one line, measured stoichiometry N of 6×His-SppA^K199A (enzyme, B. subtilis, UniProt O34525 1-335, looked up, SppA, membrane protease of Bacillus subtilis, with the active-site mutation K199A; band of about 36 kDa; not shown: 6×His, N-terminal, kept) MNAKRWIALVIALGIFGVSIIVSISMSFFESVKGAQTDLTSLTDESQEKTLENGSPSSKIAVLEVSGTIQDNGDSSSLLGADGYNHRTFLKNLERAKDDKTVKGIVLKVNSPGGGVYESAEIHKKLEEIKKETKKPIYVSMGSMAASGGYYISTAADKIFATPETLTGSLGVIMESVNYSKLADKLGISFETIKSGAHADIMSPSREMTKEEKNIMQSMVDNSYEGFVDVISKGRGMPKAEVKKIADGRVYDGRQAKKLNLVDELGFYDDTITAMKKDHKDLKNASVISYEESFGLGSLFSMGANKMFKSEIDFLNMREILSQSGSPRMMYLYAK
8
